assay: in vitro; conditions: human, hek293t cells
The entries below are paired with their reported viability at 48 h, 25 µM.

compound: COC(=O)c1sccc1N1C(=O)C=CC1=O
viability at 48 h, 25 µM: 16.6%
//
compound: COc1cc(NC(=O)CCl)cc(OC)c1
viability at 48 h, 25 µM: 8.6%
//
compound: C=CC(=O)N1CCCC1c1cn(C)nc1C (centres unmarked)
viability at 48 h, 25 µM: 50.9%
//
compound: C=CC(=O)Nc1ccc2c(c1)N(CC#N)CC2
viability at 48 h, 25 µM: 94.7%
//
compound: CC(Cl)C(=O)N1CCCC(NS(=O)(=O)c2cccc(F)c2)C1 (centres unmarked)
viability at 48 h, 25 µM: 79.3%
//
compound: COCc1ncc2c(n1)CC1CCC2N1C(=O)C(C)Cl (centres unmarked)
viability at 48 h, 25 µM: 77%
//
compound: CCn1cc(N2C(=O)C=CC2=O)cn1
viability at 48 h, 25 µM: 38.5%
//
compound: C=CC(=O)Nc1ccccc1C1CC1(F)F (centres unmarked)
viability at 48 h, 25 µM: 86.4%
//
compound: CC(Cl)C(=O)NC(c1cc(Cl)ccc1Cl)C1CCOC1 (centres unmarked)
viability at 48 h, 25 µM: 87.9%
//
compound: C=CC(=O)N1CCC(C(=O)N[C@H]2CCO[C@H](c3ccccn3)C2)CC1 (racemic)
viability at 48 h, 25 µM: 66.9%
//
compound: CC(Cl)C(=O)NCCCc1c[nH]c2ccc(F)cc12 (centres unmarked)
viability at 48 h, 25 µM: 96%
